Reported growth is given for each of the following compounds.
# Tested on: 786-0 renal
# test: NCI-60 one-dose screen, 48 h (100 = growth as untreated, 0 = no growth, -100 = all killed)
# details: 10 µM unless noted
About 83,000 compounds went through this panel and 20% of them were active in at least one assay; those are over-represented in the sample as a whole.
Answer in %, number only, no unit symbol.

Here is how some compounds turned out for growth.
>>> numeric_result("Cn1nccc1Nc1nccc(-c2ccn([C@H](CO)c3ccc(Cl)c(F)c3)c(=O)c2)n1")
93
>>> numeric_result("C/C(=C(/c1ccc(Cl)cc1)c1ccc(OCCN2CCCCC2)cc1)c1ccccc1")
75.6
>>> numeric_result("O=C(c1ccccc1)C(c1ccccc1)N1CCOCC1 (centres undefined)")
104
>>> numeric_result("Cc1cn(-c2cc(NC(=O)c3ccc(C)c(Nc4nccc(-c5cccnc5)n4)c3)cc(C(F)(F)F)c2)cn1")
71.4
>>> numeric_result("COc1ccc(C(=O)c2cc(OC)c(OC)c(OC)c2)cc1/C=C/C(=O)c1ccc(F)cc1")
77.4

Ask | Field request: growth | item: COc1ccc(-c2ccc3c(N4CCOC[C@@H]4C)nc(N4CCOC[C@@H]4C)nc3n2)cc1CO
Reply | 2.33

Ask | Input C/C(=N\NC(=O)Cn1c(-c2ccc(S(C)(=O)=O)cc2)nc2ccccc21)c1ccc(Cl)cc1
Reply | 102

Ask | Input FC(F)c1nc2ccccc2n1-c1nc(N2CCOCC2)nc(N2CCOCC2)n1
Reply | -32.8

Ask | Input CCOc1cc2ncc(C#N)c(Nc3ccc(F)c(Cl)c3)c2cc1NC(=O)/C=C/CN(C)C
Reply | -68.5

###

# System: SR leukemia
# test: NCI-60 one-dose screen, 48 h
# details: 10 µM unless noted
The panel holds about 83,000 compounds, 20% with a hit somewhere; the sample as a whole holds those more often. The source made the active and inactive calls. Rule for the calls: active = growth percent below 10; inactive = the rest.
One label from this list, please: active, inactive

>>> category("C[C@@H](Oc1cc(-n2cnc3ccc(CN4CCN(C)CC4)cc32)sc1C(N)=O)c1ccccc1C(F)(F)F")
"active"

Ask | Could you please tell me the result logged for CSc1nc2ncncc2[nH]1 in this assay?
Reply | inactive

Ask | Input Cc1cc(NCC(=O)Nc2ccc(-c3nc4ccccc4s3)cc2)no1
Reply | inactive

Ask | Input N#Cc1c(C(F)(F)F)cc(Nc2ccc3nc(NCCN4CCCC4)oc3c2)n2c1nc1ccccc12
Reply | active

Ask | Input COc1cc(F)c(F)c(Nc2ccc(I)cc2F)c1NS(=O)(=O)C1(C[C@H](O)CO)CC1
Reply | inactive

Ask | Input Cc1cc(N(CCNc2ccnc3cc(Cl)ccc23)Cc2ccc3c(c2)OCO3)nc(N2CCN(C)CC2)n1
Reply | active

Ask | Input CC1(O)CCC2CC3OC3(C)CCC3OC3(C)C(O)CC1C2(C)C (stereo unspecified)
Reply | inactive

###

# Tested on: NCI-H226 lung
# test: NCI-60 one-dose screen, 48 h
# details: 10 µM unless noted
# Procedure: Growth inhibition of the NCI-H226 human Non-Small Cell Lung tumor cell line is measured as a screen for anti-cancer activity. Cells are grown in 96 well plates and exposed to the test compound for 48 hours. Compounds are tested at a single concentration, which is 10^-5 M for most compounds. The reported endpoint is percent growth (GI% or GIPRCNT), where numbers from 0 - 100% represent growth inhibition, and numbers from -100% - 0 represent cell death. […]
Compounds without any hit were thinned out: in the full panel of roughly 83,000, 20% have a hit. Active and inactive are the calls of the source. How the source made its calls: active means growth percent below 10; inactive means the rest.
One label from this list, please: 1 (active), 0 (inactive)

Reference set, count: 3
>>> category("OCCNC(=S)Nc1ccc(-c2nc(N3C[C@H]4CC[C@@H](C3)O4)c3cccn3n2)cc1")
1
>>> category("CCCCN1CCCC[C@@H]1C(=O)N[C@H](C(=O)N(C)[C@H](CCc1nc(C(=O)N[C@@H](Cc2ccccc2)C[C@H](C)C(=O)OC)cs1)C(C)C)C(C)C")
0
>>> category("COc1ccc(COc2cc3oc(=O)c4cc(C(C)O)ccc4c3cc2OC)cc1 (stereo unspecified)")
0

Ask | Could you please tell me the result logged for COC(=O)[C@H](C)NC(=O)[C@@H](OC)[C@@H]1Cc2cc3cc(OC4CC(OC5CC(O)C(O)C(C)O5)C(O)C(C)O4)c(C)c(O)c3c(O)c2C(=O)[C@H]1OC1CC(OC2CC(OC3CC(C)(O)C(O)C(C)O3)C(O)C(C)O2)C(O)C(C)O1 (stereo partly specified) in this assay?
Reply | 1

Ask | Input O=C(NC[C@H](O)CO)c1ccncc1Nc1ccc(I)cc1F
Reply | 0

Ask | Input CC(C)(C)c1cnc(CSc2cnc(NC(=O)C3CCNCC3)s2)o1
Reply | 1
